Biological target: Gcr1 (UniProt P07261)
Sequence: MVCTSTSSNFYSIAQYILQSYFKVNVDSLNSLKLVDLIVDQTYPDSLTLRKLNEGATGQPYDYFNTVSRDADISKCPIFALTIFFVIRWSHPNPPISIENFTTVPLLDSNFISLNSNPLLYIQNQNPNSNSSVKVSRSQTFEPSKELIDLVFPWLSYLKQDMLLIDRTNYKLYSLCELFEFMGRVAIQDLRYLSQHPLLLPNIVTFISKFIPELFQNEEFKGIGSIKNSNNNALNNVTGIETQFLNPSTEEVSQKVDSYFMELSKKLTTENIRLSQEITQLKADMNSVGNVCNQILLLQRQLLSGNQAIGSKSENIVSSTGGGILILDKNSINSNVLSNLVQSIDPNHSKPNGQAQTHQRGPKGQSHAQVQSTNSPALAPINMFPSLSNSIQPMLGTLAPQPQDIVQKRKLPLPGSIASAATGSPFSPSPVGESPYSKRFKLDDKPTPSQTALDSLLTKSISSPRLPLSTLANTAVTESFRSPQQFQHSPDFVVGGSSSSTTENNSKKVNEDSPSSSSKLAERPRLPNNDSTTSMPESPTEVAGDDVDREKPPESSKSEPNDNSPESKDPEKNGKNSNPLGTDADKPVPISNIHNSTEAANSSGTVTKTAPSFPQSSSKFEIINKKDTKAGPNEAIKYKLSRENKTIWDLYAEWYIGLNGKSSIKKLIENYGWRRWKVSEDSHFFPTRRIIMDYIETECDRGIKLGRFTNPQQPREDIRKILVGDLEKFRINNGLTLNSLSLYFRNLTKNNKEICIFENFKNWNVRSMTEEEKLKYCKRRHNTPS
Experiment: PBM E-score (8-mer binding enrichment) (E-score (-0.5 to 0.5)); higher = stronger / more preferred TF binding
Conditions: protein concentration: 100 nM; construct: GST-full length
In all, about 33,000 sequences were measured (“E-score (-0.5 to 0.5)”: median about -0.011, highest 2% from about 0.28 on). The sample holds the highest values, similar sequences and a random draw of the others, so the mix is not that of the screen.
MEASURE: PBM E-score
Answer with a bare number; do not write a unit.

# annotated cases, reported PBM E-score shown
CGCCTGTC: -0.105
CGATCAAG: -0.0812
CGGCTCCC: 0.34
ACCCGCTC: -0.0223
ATAGTGTG: 0.106
AGGCGCGC: 0.16
AGGCGCAT: 0.0287
AGCTTCAA: 0.0987

Prompt line: Write down the reported PBM E-score of "AAGCGTCC" , test system: Gcr1 (UniProt P07261).
Response line: 0.323

Prompt line: Write down the reported PBM E-score of "ATGCGCCC" , test system: Gcr1 (UniProt P07261).
Response line: 0.0661

Prompt line: Write down the reported PBM E-score of "AACTACTG" , test system: Gcr1 (UniProt P07261).
Response line: -0.0124

Prompt line: Write down the reported PBM E-score of "AGCTTCCA" , test system: Gcr1 (UniProt P07261).
Response line: 0.458

Prompt line: Write down the reported PBM E-score of "TGCTTCCA" , test system: Gcr1 (UniProt P07261).
Response line: 0.146

Prompt line: Write down the reported PBM E-score of "CAGATGCC" , test system: Gcr1 (UniProt P07261).
Response line: 0.217
